- System under test: D(2) dopamine receptor (Bos taurus) (UniProt P20288)
- Sequence (P20288 whole entry): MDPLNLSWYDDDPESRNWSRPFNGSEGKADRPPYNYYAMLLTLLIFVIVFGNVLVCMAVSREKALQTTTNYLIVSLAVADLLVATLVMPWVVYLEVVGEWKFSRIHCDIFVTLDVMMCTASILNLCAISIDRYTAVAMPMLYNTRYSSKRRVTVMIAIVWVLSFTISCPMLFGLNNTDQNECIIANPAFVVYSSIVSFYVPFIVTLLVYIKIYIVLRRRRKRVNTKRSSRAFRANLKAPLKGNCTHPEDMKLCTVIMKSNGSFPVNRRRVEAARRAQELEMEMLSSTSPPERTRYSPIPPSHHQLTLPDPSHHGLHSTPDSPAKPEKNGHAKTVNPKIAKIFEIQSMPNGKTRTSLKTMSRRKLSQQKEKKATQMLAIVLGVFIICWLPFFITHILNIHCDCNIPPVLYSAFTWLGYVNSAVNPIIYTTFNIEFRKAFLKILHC
- Procedure text: Percentage of receptor in the high affinity form for the compound to Dopamine receptor D2 in presence of Gpp(NH)p
- Assay type: functional
Where a SMILES comes first, the peptide text is derived from it.
Endpoint: RH (%)

- Molecule: "NC(=O)[C@H]1CS[C@@H]2C[C@@H](N3CC(=O)N4CCC[C@H]4C3=O)C(=O)N12"
  RH (%): 18.5
- Molecule: "CC(C)C[C@H](NC(=O)[C@@H]1CCCN1)C(=O)NCC(N)=O (H-Pro-Leu-Gly-NH2)"
  RH (%): 19
- Molecule: "CC(C)C[C@@H](C(=O)NCC(N)=O)N1CC(=O)N2CCC[C@H]2C1=O"
  RH (%): 18.8
- Molecule: "NC(=O)CN1CC[C@@H](N2CC(=O)N3CCC[C@H]3C2=O)C1=O"
  RH (%): 22

* * *

- System under test: D(2) dopamine receptor (Bos taurus)
- Procedure text: Percentage of receptor in the low affinity form for the compound to Dopamine receptor D2 in absence of Gpp(NH)p
- Assay type: functional
Where a SMILES comes first, the peptide text is derived from it.
Endpoint: RL (%)

- Compound: "CC(C)C[C@H](NC(=O)[C@@H]1CCCN1)C(=O)NCC(N)=O (H-Pro-Leu-Gly-NH2)"
  Measure unit: "%"
  RL: 51
- Compound: "NC(=O)CN1CC[C@@H](N2CC(=O)N3CCC[C@H]3C2=O)C1=O"
  Measure unit: "%"
  RL: 55
- Compound: "NC(=O)[C@H]1CS[C@@H]2C[C@@H](N3CC(=O)N4CCC[C@H]4C3=O)C(=O)N12"
  Measure unit: "%"
  RL: 51
- Compound: "CC(C)C[C@@H](C(=O)NCC(N)=O)N1CC(=O)N2CCC[C@H]2C1=O"
  Measure unit: "%"
  RL: 43.8

* * *

- System under test: D(2) dopamine receptor (Bos taurus) (UniProt P20288)
- Procedure text: Percentage of receptor in the low affinity form for the compound to Dopamine receptor D2 in presence of Gpp(NH)p
- Format: functional
Where a SMILES comes first, the peptide text is derived from it.
Endpoint: RL (%)

- Molecule: "NC(=O)[C@H]1CS[C@@H]2C[C@@H](N3CC(=O)N4CCC[C@H]4C3=O)C(=O)N12"
  RL, %: 81.5
- Molecule: "NC(=O)CN1CC[C@@H](N2CC(=O)N3CCC[C@H]3C2=O)C1=O"
  RL, %: 78
- Molecule: "CC(C)C[C@H](NC(=O)[C@@H]1CCCN1)C(=O)NCC(N)=O (H-Pro-Leu-Gly-NH2)"
  RL, %: 82
- Molecule: "CC(C)C[C@@H](C(=O)NCC(N)=O)N1CC(=O)N2CCC[C@H]2C1=O"
  RL, %: 81.2

* * *

- System under test: D(2) dopamine receptor (Bos taurus) (UniProt P20288)
- Procedure text: Percentage of receptor in the high affinity form for the compound to Dopamine receptor D2 in absence of Gpp(NH)p
- Type: functional
Where a SMILES comes first, the peptide text is derived from it.
Endpoint: RH (%)

- Molecule: "CC(C)C[C@@H](C(=O)NCC(N)=O)N1CC(=O)N2CCC[C@H]2C1=O"
  Measure unit: "%"
  RH: 56.2
- Molecule: "NC(=O)[C@H]1CS[C@@H]2C[C@@H](N3CC(=O)N4CCC[C@H]4C3=O)C(=O)N12"
  Measure unit: "%"
  RH: 49
- Molecule: "CC(C)C[C@H](NC(=O)[C@@H]1CCCN1)C(=O)NCC(N)=O (H-Pro-Leu-Gly-NH2)"
  Measure unit: "%"
  RH: 49
- Molecule: "NC(=O)CN1CC[C@@H](N2CC(=O)N3CCC[C@H]3C2=O)C1=O"
  Measure unit: "%"
  RH: 46
